Assay: Pharmacokinetics: blood residual concentration after intraperitoneal injection
Assay type: in vivo, C57BL/6J
Settings: C57BL/6J, mouse, plasma, ip, 13.5 mg/kg intraperitoneal
Protocol: The pharmacokinetic indices were calculated by measuring the blood residual concentrations of GL derivatives. Specifically, GL and GL-PEG-AHP were injected intraperitoneally in an amount of 13.5 mg/kg into animals (C57BL/6J, 6 weeks old, 5 per cage). At each time point (0, 20, 30, 120, 240, and 480 minutes) following the intraperitoneal injection, the animals were sacrificed, and 300 μl of blood samples were obtained through the abdominal vein. […]
property: AUC(0-t) (µg·h/mL)
Write the number in µg·h/mL without appending the unit.

Request: Would you mind telling me what AUC(0-t) value was observed for CC1(C)[C@@H](O[C@H]2O[C@H](C(=O)O)[C@@H](O)[C@H](O)[C@H]2O[C@@H]2O[C@H](C(=O)O)[C@@H](O)[C@H](O)[C@H]2O)CC[C@]2(C)[C@H]3C(=O)C=C4[C@@H]5C[C@@](C)(C(=O)O)CC[C@]5(C)CC[C@@]4(C)[C@]3(C)CC[C@@H]12 [GL, glycyrrhizin] ?
Result: 114
